SUBJECT_OF_TEST: C-type lectin domain family 4 member E (Mus musculus)
PROTOCOL_DESCRIPTION: Agonist activity at mincle in wild type C57BL/6 mouse GM-CSF derived BMDM assessed as increase in TNF release at 0.1 to 1 nmol after 24 hrs by sandwich ELISA
Calls of active or inactive are those of the source. The rule behind the calls is not given here.
READOUT_KIND: Activity

# count of solved cases: 5
COMPOUND	Activity
CCCCCCCOc1ccc(C(=O)OC[C@H]2O[C@H](O[C@H]3O[C@H](COC(=O)c4ccc(OCCCCCCC)cc4O)[C@@H](O)[C@H](O)[C@H]3O)[C@H](O)[C@@H](O)[C@@H]2O)c(O)c1	Active
O=C(OC[C@H]1O[C@H](O[C@H]2O[C@H](COC(=O)c3ccc(O)cc3O)[C@@H](O)[C@H](O)[C@H]2O)[C@H](O)[C@@H](O)[C@@H]1O)c1ccc(O)cc1O	inactive
Cc1cc(O)cc(O)c1C(=O)OC[C@H]1O[C@H](O[C@H]2O[C@H](COC(=O)c3c(C)cc(O)cc3O)[C@@H](O)[C@H](O)[C@H]2O)[C@H](O)[C@@H](O)[C@@H]1O [BRARTEMICIN]	inactive
CCCCCCCOc1ccc(C(=O)OC[C@H]2O[C@H](O[C@H]3O[C@H](COC(=O)c4ccc(OCCCCCCC)cc4)[C@@H](O)[C@H](O)[C@H]3O)[C@H](O)[C@@H](O)[C@@H]2O)cc1	Active
CCCCCCCCCCCCCCCCCCCCCC(=O)OC[C@H]1O[C@H](O[C@H]2O[C@H](COC(=O)CCCCCCCCCCCCCCCCCCCCC)[C@@H](O)[C@H](O)[C@H]2O)[C@H](O)[C@@H](O)[C@@H]1O	Active

Report Activity for every entry below.
1. CCCCOc1ccc(C(=O)OC[C@H]2O[C@H](O[C@H]3O[C@H](COC(=O)c4ccc(OCCCC)cc4O)[C@@H](O)[C@H](O)[C@H]3O)[C@H](O)[C@@H](O)[C@@H]2O)c(O)c1
2. CCCCCCCCCCCCCCCCCCOc1ccc(C(=O)OC[C@H]2O[C@H](O[C@H]3O[C@H](COC(=O)c4ccc(OCCCCCCCCCCCCCCCCCC)cc4O)[C@@H](O)[C@H](O)[C@H]3O)[C@H](O)[C@@H](O)[C@@H]2O)c(O)c1
3. CCCCCCCCCCCCCCCCCCOc1cc(C)c(C(=O)OC[C@H]2O[C@H](O[C@H]3O[C@H](COC(=O)c4c(C)cc(OCCCCCCCCCCCCCCCCCC)cc4O)[C@@H](O)[C@H](O)[C@H]3O)[C@H](O)[C@@H](O)[C@@H]2O)c(O)c1
4. CCCCCCCCCCCCCCCCCCCCCCCCCC(O)C(CCCCCCCCCCC1CC1CCCCCCCCCCCCCCCCCC)C(=O)OC[C@H]1O[C@H](O[C@H]2O[C@H](COC(=O)C(CCCCCCCCCCCCCCCCCCCCCCCC)C(O)CCCCCCCCCCCC3CC3CCCCCCCCCCCCCCCCCC)[C@@H](O)[C@H](O)[C@H]2O)[C@H](O)[C@@H](O)[C@@H]1O (stereo partly specified)
5. CCCCCCCCCCCCCCCCCCOc1ccc(C(=O)OC[C@H]2O[C@H](O[C@H]3O[C@H](COC(=O)c4ccc(OCCCCCCCCCCCCCCCCCC)cc4)[C@@H](O)[C@H](O)[C@H]3O)[C@H](O)[C@@H](O)[C@@H]2O)cc1
6. COc1ccc(C(=O)OC[C@H]2O[C@H](O[C@H]3O[C@H](COC(=O)c4ccc(OC)cc4O)[C@@H](O)[C@H](O)[C@H]3O)[C@H](O)[C@@H](O)[C@@H]2O)c(O)c1

1. inactive
2. Active
3. Active
4. Active
5. Active
6. inactive

Where these numbers come from: ChEMBL document CHEMBL4033780
